# experimentalDetails: Host toxicity (preliminary data)
# Assay type: in vivo, mice
# assayContext: mouse, in vivo; one ip injection, 30 mg/kg, preliminary, one experiment; read-out: fatalities
metric: mortality (%)
Reply numerically in %, unit not repeated.

// recorded mortality for CO[C@@]12[C@H](COC(N)=O)C3=C(C(=O)C(C)=C(Nc4ccc(O[C@@H]5O[C@H](COC(C)=O)[C@@H](OC(C)=O)[C@H](OC(C)=O)[C@H]5OC(C)=O)cc4)C3=O)N1C[C@@H]1N[C@@H]12 [MC-77] : 80
